Reported cytotoxicity at 70.5 h values for the following compounds.
Assay Details: Human HepG2 cell viability assay in 384 well format
Type: toxicity, cell-based
Design: dose 125 nL, time 70.5 hour; concentration not given beside the values
Condition Set: HepG2 cells, read-out: Inhibition
Output spec: scalar in %, unitless text.

>>> quantitative_readout("Cc1ccc(CN2CCCC2(C(N)=O)c2cnccn2)c(C)c1 (stereo unspecified)")
-0.964
>>> quantitative_readout("Cc1ccc(C(=O)N2Cc3ccccc3C2)cc1N1CCNC1=O")
-6.89
>>> quantitative_readout("O=C(NCCCC(=O)N1Cc2ccccc2C1)NCc1cccnc1")
-0.375
>>> quantitative_readout("NC(=O)c1cccc(CCNCc2cnc(-c3cccs3)s2)c1")
-12.1
>>> quantitative_readout("CC(=O)N1CCC(C(=O)NCCc2c[nH]c3cc(C)ccc23)CC1")
16.1

Now turn to the next compound.
Incoming: Which cytotoxicity at 70.5 h value is on record for Cc1ccc(-n2ncc(C(=O)N(C)C3CCN(C)CC3)c2N)cc1C ?
Outgoing: 8.36
